# Assayed Target: IRAK4 (Homo sapiens)
# Sequence (Q9NWZ3 whole entry): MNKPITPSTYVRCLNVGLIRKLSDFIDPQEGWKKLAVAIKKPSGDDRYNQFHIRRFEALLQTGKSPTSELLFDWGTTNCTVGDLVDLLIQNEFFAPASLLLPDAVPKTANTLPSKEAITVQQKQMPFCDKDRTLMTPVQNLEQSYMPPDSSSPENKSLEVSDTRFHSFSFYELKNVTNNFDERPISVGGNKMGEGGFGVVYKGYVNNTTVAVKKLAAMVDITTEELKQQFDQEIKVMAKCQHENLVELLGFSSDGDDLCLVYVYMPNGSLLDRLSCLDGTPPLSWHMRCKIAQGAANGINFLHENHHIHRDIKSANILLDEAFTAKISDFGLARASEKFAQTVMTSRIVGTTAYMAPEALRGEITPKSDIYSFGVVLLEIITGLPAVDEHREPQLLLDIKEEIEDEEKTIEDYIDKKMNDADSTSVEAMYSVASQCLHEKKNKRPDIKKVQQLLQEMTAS
# Protocol Details: Degradation of IRAK4 in THP1 cells, Western blot
# Assay type: cell-based
# Set-up: Degradation of IRAK4 in THP1 by compound; host or cells: THP-1
# Measurement Conditions: THP-1 cells, 24 hours of incubation, IRAK4 protein by Western blot; read-out: DC50

{"columns": ["Compound", "Assayed Target", "DC50"],
 "data": [
  ["Cn1c(=O)n(C2CCC(=O)NC2=O)c2cccc(N3CCC(CN4CCN(c5ccc(-n6cc(NC(=O)c7cccc(-c8ccn[nH]8)n7)c(S(N)(=O)=O)n6)cc5)CC4)CC3)c21 (centres unmarked) [Compound A327]", "IRAK4 (Homo sapiens)", "< 100 nM"],
  ["Cn1c(=O)n(C2CCC(=O)NC2=O)c2ccc(N3CCC(CN4CCN(c5ccc(-n6cc(NC(=O)c7cccc(C(F)(F)F)n7)c(C(N)=O)n6)cc5)CC4)C(F)(F)C3)cc21 (centres unmarked) [Compound A299]", "IRAK4 (Homo sapiens)", "< 100 nM"],
  ["Cn1c(=O)n(C2CCC(=O)NC2=O)c2ccc(N3CCC(CN4CCN(c5ccc(-n6cc(NC(=O)c7cccc(-c8ccn[nH]8)n7)c(S(N)(=O)=O)n6)cc5)CC4)CC3)cc21 (centres unmarked) [Compound A326]", "IRAK4 (Homo sapiens)", "< 100 nM"],
  ["Cn1c(=O)n(C2CCC(=O)NC2=O)c2cccc(N3CCC4(CCN(C(=O)c5ccc(-n6cc(NC(=O)c7cccc(C(F)(F)F)n7)c(C(N)=O)n6)cc5)C4)CC3)c21 (centres unmarked) [Compound A135]", "IRAK4 (Homo sapiens)", "< 100 nM"],
  ["Cn1c(=O)n(C2CCC(=O)NC2=O)c2cccc(N3CCC4(CC3)CN(Cc3ccc(-n5cc(NC(=O)c6cccc(C(F)(F)F)n6)c(C(N)=O)n5)cc3)C4)c21 (centres unmarked) [Compound A319]", "IRAK4 (Homo sapiens)", "100 to 1000 nM"]
]}

Cited source: patent EP4763839A1
